target: STAT3 (Homo sapiens, UniProt P40763); construct: endogenous in cells; host or cells: LNCaP (human prostate cancer) stably carrying pSTAT3-TA-luc reporter plasmid; assay: STAT3 activation inhibition assay (reporter gene assay, LNcaP stable cell line, IL-6 stimulated); format: cell-based; settings: LNcaP stable cell line [plasmid STAT3-TA-luc], IL-6 10 ng/mL, 48 hours, luciferase activity; read-out: IC50 (μM) pSTAT3
Sequence (P40763 whole entry): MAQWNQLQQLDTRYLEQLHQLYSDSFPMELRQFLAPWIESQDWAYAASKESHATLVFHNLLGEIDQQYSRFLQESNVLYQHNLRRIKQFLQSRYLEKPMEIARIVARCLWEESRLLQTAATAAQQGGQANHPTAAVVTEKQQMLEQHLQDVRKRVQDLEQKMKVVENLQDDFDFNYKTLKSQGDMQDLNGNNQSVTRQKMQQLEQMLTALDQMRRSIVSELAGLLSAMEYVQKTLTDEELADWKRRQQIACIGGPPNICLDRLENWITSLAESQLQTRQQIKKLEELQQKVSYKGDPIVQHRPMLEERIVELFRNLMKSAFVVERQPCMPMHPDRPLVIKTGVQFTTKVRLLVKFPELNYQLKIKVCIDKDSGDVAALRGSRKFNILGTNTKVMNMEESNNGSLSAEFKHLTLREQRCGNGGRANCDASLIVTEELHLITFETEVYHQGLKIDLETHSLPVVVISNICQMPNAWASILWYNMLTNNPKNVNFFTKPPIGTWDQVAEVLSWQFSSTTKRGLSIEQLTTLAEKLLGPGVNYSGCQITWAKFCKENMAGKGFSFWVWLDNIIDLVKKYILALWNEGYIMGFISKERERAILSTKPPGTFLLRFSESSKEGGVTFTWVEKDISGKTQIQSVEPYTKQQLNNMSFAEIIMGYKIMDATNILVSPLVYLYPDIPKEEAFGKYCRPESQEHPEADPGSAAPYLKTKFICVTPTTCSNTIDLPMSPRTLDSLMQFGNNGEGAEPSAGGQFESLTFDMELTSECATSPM
Here, each record is paired with measured IC50 data.
MEASURED ENDPOINT: IC50 (µM)

>  <SMILES STRING>
NS(=O)(=O)c1ccc(CCN(CCc2ccccc2)c2cc(Cl)nc3ccccc23)cc1

>  <MEASURED ENDPOINT>
IC50

>  <VALUE COMPARATOR>
=

>  <NUMERIC VALUE>
20.9

$$$$
>  <SMILES STRING>
CS(=O)(=O)Nc1ccc(CCNc2cc(Cl)nc3ccccc23)cc1

>  <MEASURED ENDPOINT>
IC50

>  <VALUE COMPARATOR>
=

>  <NUMERIC VALUE>
0.038

$$$$
>  <SMILES STRING>
O=[N+]([O-])c1ccc(CCNc2cc(Cl)nc3cccc(OC(F)(F)F)c23)cc1

>  <MEASURED ENDPOINT>
IC50

>  <VALUE COMPARATOR>
=

>  <NUMERIC VALUE>
3.1

$$$$
>  <SMILES STRING>
CS(=O)(=O)Nc1ccc(CCNc2ncnc3ccc(F)cc23)cc1

>  <MEASURED ENDPOINT>
IC50

>  <VALUE COMPARATOR>
=

>  <NUMERIC VALUE>
0.063

$$$$
>  <SMILES STRING>
NC(=O)COc1ccc2nc(Cl)cc(NCCc3ccc([N+](=O)[O-])cc3)c2c1

>  <MEASURED ENDPOINT>
IC50

>  <VALUE COMPARATOR>
>

>  <NUMERIC VALUE>
50

$$$$

###

Tested on: prostate cancer cell line (LNCap)
Test: Cell growth inhibition assay (Celltiter Glo)
Format: cell-based
Details: Homo sapiens, LNCap cells, 120 hours incubation
Description: Cancer cell inhibitory effects by the compounds of the Examples were evaluated as follows. The prostate cancer cell line (LNCap) used was cultured under the condition according to the vendor's recommendation. LNCap was dispensed into a 96-well plate at 10,000 cells/well. […] The growth inhibitory activity was measured on microLUMA LB96P (BERTHOLD) instrument using Glo-vial protocol. […]
Note to self: IC50 under 2 µM means class 1, ties and anything higher get class 0.

>  <SMILES STRING>
Cc1cc(NCCc2ccc([N+](=O)[O-])cc2)c2ccccc2n1

>  <ANSWER LABEL>
class 0

$$$$
>  <SMILES STRING>
CS(=O)(=O)Nc1ccc(CCNc2cncc3ccccc23)cc1

>  <ANSWER LABEL>
class 1

$$$$
>  <SMILES STRING>
O=[N+]([O-])c1ccc(CCNc2ncnc3ccccc23)cc1

>  <ANSWER LABEL>
class 1

$$$$
>  <SMILES STRING>
O=[N+]([O-])c1ccc(CCNc2cc(C(F)(F)F)nc3ccccc23)cc1

>  <ANSWER LABEL>
class 0

$$$$
>  <SMILES STRING>
CS(=O)(=O)Nc1ccc(CCNc2nccc3occc23)cc1

>  <ANSWER LABEL>
class 0

$$$$
>  <SMILES STRING>
CS(=O)(=O)Nc1ccc(CCNc2ncnc3ccc(-c4ccc(Cl)cc4Cl)cc23)cc1

>  <ANSWER LABEL>
class 0

$$$$
>  <SMILES STRING>
CS(=O)(=O)Nc1ccc(CCNc2nc(C(F)(F)F)nc3ccccc23)cc1

>  <ANSWER LABEL>
class 0

$$$$
>  <SMILES STRING>
O=[N+]([O-])c1ccc(CCNc2cc(Cl)nc3c(F)cccc23)cc1

>  <ANSWER LABEL>
class 1

$$$$
>  <SMILES STRING>
CS(=O)(=O)Nc1ccc(CCNc2cc(Cl)nc3cccc(OC(F)(F)F)c23)cc1

>  <ANSWER LABEL>
class 1

$$$$

Values from patent US12404249B2
